Test system: Candida dubliniensis
Experiment: Antifungal activity against Candida dubliniensis after 20 hrs by agar dilution method
Assay type: functional
Would you mind telling me the reported MIC90 of each entry?
Answers are plain numbers, in µg/mL.

OC(Cn1cncn1)(Cn1cncn1)c1ccc(F)cc1F [FLUCONAZOLE]    2
CCCCCC1C(CCC)=NOC1CC[C@H](O)CCCCCCCC(=O)OC (some centres not stated)    128
CCCCCC[C@@H](O)CC1C(CCC)=NOC1CCCCCCCC(=O)OC (some centres not stated)    32
CCCc1cc(CCCCCCCCC(=O)O)on1    128

Turning now to a further compound:
Fill blank: measured MIC90 of the compound CCCCCCCCC1C(CCC)=NOC1CCCCCCCC(=O)OC (configuration not stated) is ____.
128
